# TARGET_OR_SYSTEM: peripheral type CCK receptors in rat pancreas (Rattus norvegicus, UniProt P30551)
# Construct: Pancreas was obtained from male Sprague-Dawley rats; from tissue; host or cells: pancreas membranes of male Sprague-Dawley rats
# Sequence (P30551 whole entry): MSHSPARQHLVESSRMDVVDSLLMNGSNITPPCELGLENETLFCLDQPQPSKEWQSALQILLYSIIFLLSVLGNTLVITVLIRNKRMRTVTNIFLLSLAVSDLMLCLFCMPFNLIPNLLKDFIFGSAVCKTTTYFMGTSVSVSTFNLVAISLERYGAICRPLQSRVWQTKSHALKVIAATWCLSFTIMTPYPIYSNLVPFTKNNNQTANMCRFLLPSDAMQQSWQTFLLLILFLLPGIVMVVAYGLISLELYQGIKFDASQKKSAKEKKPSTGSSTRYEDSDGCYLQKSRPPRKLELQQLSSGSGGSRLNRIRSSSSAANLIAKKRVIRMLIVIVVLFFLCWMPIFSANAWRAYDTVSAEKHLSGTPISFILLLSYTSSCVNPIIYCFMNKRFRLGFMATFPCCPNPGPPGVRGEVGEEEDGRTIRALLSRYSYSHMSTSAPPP
# METHOD: Binding to peripheral type CCK receptors in rat pancreas (3H-L-364,718)
# TEST_SETTINGS: at 10 μM; read-out: Pancreas Percent Inhibition
Binary classification by inhibition at 10 µM, with 60% as an inclusive lower bound for condition met; all other cases are condition not met.

Some solved cases for reference:
Prompt line: Quick check: does O=C1NN(C(=O)Nc2cnc3ccccc3c2)[C@@H](c2ccccc2)[C@@H]1c1ccccc1 (relative stereo) [Example 92] have inhibition at 10 µM greater than or equal to 60%?
Response line: condition met

Prompt line: Can you handle O=C1NN(C(=O)Nc2cccc3ccccc23)[C@@H](c2ccccc2)[C@@H]1c1ccccc1 (relative stereo) [Example 90] next?
Response line: condition met

Prompt line: # iterate: O=C1NN(C(=O)Nc2ccc3ncccc3c2)[C@@H](c2ccccc2)[C@@H]1c1ccccc1 (relative stereo) [Example 93]
Response line: condition met

Prompt line: Also O=C1NN(C(=O)NCCc2ccccc2)[C@@H](c2ccccc2)[C@@H]1c1ccccc1 (relative stereo) [Example 105] , if possible.
Response line: condition not met

Prompt line: Queued: N#Cc1cccc(C2C(c3ccccc3)C(=O)NN2C(=O)Nc2ccc(C(F)(F)F)cc2)c1 (stereo not shown) [Example 111]
Response line: condition not met

***
Prompt line: Form field: inhibition at 10 µM at least 60%? Entry: CN1C(=O)[C@H](c2ccccc2)[C@@H](c2ccccc2)N1C(=O)Nc1cccc(Cl)c1Cl (relative stereo) [Example 66]
Response line: condition not met

Prompt line: Likewise for O=C1NN(C(=S)Nc2ccccc2)[C@H](c2ccccc2)[C@H]1c1ccccc1 (relative stereo) [Example 60] ?
Response line: condition not met

====

# TARGET_OR_SYSTEM: gastrin receptor (Cavia porcellus)
# Construct: Guinea pig stomach fundus was obtained from male Hartley guinea pigs; from tissue; host or cells: stomach fundus mucosal membranes of male Hartley guinea pigs
# Sequence (H0VZC5 1-426): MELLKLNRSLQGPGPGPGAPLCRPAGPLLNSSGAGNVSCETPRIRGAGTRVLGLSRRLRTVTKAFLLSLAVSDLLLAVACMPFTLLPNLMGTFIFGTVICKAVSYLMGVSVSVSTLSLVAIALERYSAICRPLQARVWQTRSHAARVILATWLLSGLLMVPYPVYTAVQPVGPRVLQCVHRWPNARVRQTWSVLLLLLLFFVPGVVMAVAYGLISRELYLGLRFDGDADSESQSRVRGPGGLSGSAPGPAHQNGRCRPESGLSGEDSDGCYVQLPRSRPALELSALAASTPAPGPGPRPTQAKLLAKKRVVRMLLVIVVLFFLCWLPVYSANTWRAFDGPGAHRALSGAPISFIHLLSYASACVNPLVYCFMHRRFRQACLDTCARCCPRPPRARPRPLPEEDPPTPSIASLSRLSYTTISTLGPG
# METHOD: Gastrin binding to guinea pig stomach mucosal membranes (125I-gastrin I)
# TEST_SETTINGS: guinea pig stomach mucosal membranes; read-out: Gastrin IC50
MEASUREMENT_LABEL: pIC50
The quantity pIC50 is defined as the negative base-10 logarithm of the molar concentration.

Prompt line: Form field: reported pIC50 of O=C1NN(C(=O)Nc2ccc(Br)cc2)C(c2ccccc2Cl)C1c1ccccc1 (stereo not drawn) [Example 114]
Response line: 6.44

Others:
Prompt line: Consider the molecule COc1cccc(C2C(=O)NN(C(=O)Nc3ccc(Br)cc3)C2c2ccccc2)c1 (stereo not drawn) [Example 123] and give its measured pIC50.
Response line: 6.16

Prompt line: And for NC(=O)c1cccc(C2C(c3ccccc3)C(=O)NN2C(=O)Nc2ccc(Br)cc2)c1 (stereo not drawn) [Example 118] ?
Response line: 5.28

Prompt line: Follow-up item: O=C1NN(C(=O)Nc2ccc(Br)cc2)C(c2ccccc2)C1c1cccc(Cl)c1 (stereo not drawn) [Example 126]
Response line: 6.68

Prompt line: Could you do the same for CC(C)c1ccc(NC(=O)N2NC(=O)C(c3ccccc3Cl)C2c2ccccc2)cc1 (stereo not drawn) [Example 132] , please?
Response line: 7.15

Prompt line: Can you handle O=C1NN(C(=O)Nc2ccc(Cl)c(C(F)(F)F)c2)[C@@H](c2ccccc2)[C@@H]1c1ccccc1 (relative stereo) [Example 1] next?
Response line: 6.82
